Tested on: MDR1
Experiment: Apparent inward permeability in MDCK2-MDR1 cells
Assay type: ADME, cell-based, Canis lupus familiaris
Settings: dog, MDCK-MDR1
property label: Papp
Reply with the number, then its unit.

## Input What value of measured Papp is listed for `N#Cc1cccc(S(=O)(=O)c2cnc3cc(F)ccc3c2-c2ccc(Cl)cc2)c1` ?
## Output 11.5 ×10⁻⁶ cm/s

---

System: MDR1
Experiment: Ratio of apparent outward permeability to apparent inward permeability in MDCK2-MDR1 cells
Format: ADME, cell-based, Canis lupus familiaris
Settings: dog, MDCK-MDR1
property label: efflux ratio
Answer as a number with no unit attached.

## Input What value of measured efflux ratio is listed for `N#Cc1cccc(S(=O)(=O)c2cnc3cc(F)ccc3c2-c2ccc(Cl)cc2)c1` ?
## Output 0.74

Source listed as ChEMBL document CHEMBL4007421.
